Taken from patent US20210255193A1.

compounds and their reported isoTOP-ABPP reactivity ratio at lysine Q14CX7_K575
# system.name: NAA25 N-alpha-acetyltransferase 25, NatB auxiliary subunit (Homo sapiens, UniProt Q14CX7)
# Construct: isoTOP-ABPP experiments performed in cell lysates (in vitro); endogenous in cells; host or cells: soluble proteome of human cancer cell lines (MDA-MB-231; Ramos and Jurkat also prepared)
# Sequence (Q14CX7 whole entry): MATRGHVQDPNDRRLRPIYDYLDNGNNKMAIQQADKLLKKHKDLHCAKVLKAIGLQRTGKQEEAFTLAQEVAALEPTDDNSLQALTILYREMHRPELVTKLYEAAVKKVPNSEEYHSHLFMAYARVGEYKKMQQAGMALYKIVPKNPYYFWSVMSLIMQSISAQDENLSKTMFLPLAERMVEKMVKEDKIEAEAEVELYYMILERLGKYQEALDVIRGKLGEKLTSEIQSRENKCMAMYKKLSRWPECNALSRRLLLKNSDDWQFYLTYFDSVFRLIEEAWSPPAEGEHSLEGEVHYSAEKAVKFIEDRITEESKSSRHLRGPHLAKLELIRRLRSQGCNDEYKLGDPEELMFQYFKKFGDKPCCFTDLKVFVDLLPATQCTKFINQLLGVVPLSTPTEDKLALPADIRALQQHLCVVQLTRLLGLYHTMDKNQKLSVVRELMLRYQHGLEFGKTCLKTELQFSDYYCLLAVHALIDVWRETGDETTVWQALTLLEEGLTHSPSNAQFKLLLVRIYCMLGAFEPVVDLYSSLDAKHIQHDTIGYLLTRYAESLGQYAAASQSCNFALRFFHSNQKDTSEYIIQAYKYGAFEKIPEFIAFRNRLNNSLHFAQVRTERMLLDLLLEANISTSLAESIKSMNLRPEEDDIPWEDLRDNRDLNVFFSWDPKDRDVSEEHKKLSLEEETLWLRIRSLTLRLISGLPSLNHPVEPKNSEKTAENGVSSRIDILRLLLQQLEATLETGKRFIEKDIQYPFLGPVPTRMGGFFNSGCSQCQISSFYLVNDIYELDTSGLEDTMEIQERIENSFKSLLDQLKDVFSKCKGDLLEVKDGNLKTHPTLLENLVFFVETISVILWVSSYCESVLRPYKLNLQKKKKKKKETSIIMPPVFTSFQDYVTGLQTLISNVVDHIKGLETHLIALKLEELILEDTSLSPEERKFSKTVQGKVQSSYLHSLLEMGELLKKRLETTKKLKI
# assay.name: competitive isoTOP-ABPP
# Type: binding
# condition.notes: 50 uM, 231 sol, in vitro
Please give the numeric answer without any surrounding text.

Please report the recorded isoTOP-ABPP reactivity ratio at lysine Q14CX7_K575 for O=C(Oc1ccc([N+](=O)[O-])cc1[N+](=O)[O-])c1cc(C(F)(F)F)cc(C(F)(F)F)c1 .
1.2

Please report the recorded isoTOP-ABPP reactivity ratio at lysine Q14CX7_K575 for CCn1cc(C(=O)Oc2c(F)c(F)c(F)c(F)c2F)c(=O)c2ccc(C)nc21 .
0.8

Please report the recorded isoTOP-ABPP reactivity ratio at lysine Q14CX7_K575 for COc1cc(CCC(=O)Oc2ccc([N+](=O)[O-])cc2[N+](=O)[O-])cc(OC)c1OC .
1.1

Next:
Please report the recorded isoTOP-ABPP reactivity ratio at lysine Q14CX7_K575 for O=C(Oc1ccc([N+](=O)[O-])cc1[N+](=O)[O-])C(c1ccccc1)c1ccccc1 [fragment 30, 2,4-Dinitrophenyl 2,2-diphenylacetate] .
4.7

Please report the recorded isoTOP-ABPP reactivity ratio at lysine Q14CX7_K575 for O=C(CN1C(=O)c2ccccc2C1=O)Oc1c(F)c(F)c(F)c(F)c1F .
1.4

Please report the recorded isoTOP-ABPP reactivity ratio at lysine Q14CX7_K575 for O=C(CCc1cn(-c2ccccc2)nc1-c1ccccc1)Oc1ccc([N+](=O)[O-])cc1[N+](=O)[O-] .
1.1

Please report the recorded isoTOP-ABPP reactivity ratio at lysine Q14CX7_K575 for Cn1cc(CC(=O)Oc2ccc([N+](=O)[O-])cc2[N+](=O)[O-])c2ccccc21 .
2.4
